Where do these numbers come from? They come from patent US11292801B2.

- target-entity: Human Calpain 1/NS1 (Homo sapiens, UniProt P07384)
- Sequence (P07384 1-714): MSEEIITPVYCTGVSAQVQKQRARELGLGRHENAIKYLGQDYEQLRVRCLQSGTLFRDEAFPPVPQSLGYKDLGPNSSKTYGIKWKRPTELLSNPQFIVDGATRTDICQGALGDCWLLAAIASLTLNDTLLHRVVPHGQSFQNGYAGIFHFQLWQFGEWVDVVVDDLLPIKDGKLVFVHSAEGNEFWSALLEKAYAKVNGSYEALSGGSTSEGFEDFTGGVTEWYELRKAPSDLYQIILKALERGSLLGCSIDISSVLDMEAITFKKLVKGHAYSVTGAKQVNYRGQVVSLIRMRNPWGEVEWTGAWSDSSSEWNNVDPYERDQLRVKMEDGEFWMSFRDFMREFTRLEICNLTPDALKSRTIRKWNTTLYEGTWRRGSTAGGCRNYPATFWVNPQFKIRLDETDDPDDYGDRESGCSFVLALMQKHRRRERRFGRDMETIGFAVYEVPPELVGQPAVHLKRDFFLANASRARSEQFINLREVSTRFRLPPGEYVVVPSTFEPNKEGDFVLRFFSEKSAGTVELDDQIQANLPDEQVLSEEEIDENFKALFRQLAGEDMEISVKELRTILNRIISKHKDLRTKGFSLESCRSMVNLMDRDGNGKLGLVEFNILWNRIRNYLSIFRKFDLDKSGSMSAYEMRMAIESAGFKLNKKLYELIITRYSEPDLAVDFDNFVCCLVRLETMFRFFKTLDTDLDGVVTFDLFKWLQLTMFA
- Sequence (P04632 1-268 partner): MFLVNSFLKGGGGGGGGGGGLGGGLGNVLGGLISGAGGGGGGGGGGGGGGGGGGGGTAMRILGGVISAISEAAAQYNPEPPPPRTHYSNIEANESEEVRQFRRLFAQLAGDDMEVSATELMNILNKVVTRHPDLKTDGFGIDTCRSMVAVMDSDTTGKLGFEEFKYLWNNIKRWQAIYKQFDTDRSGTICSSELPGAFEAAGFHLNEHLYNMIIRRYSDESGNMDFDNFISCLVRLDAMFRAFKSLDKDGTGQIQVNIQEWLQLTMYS
- assay-comment: Biochemical inhibition of calpain 1, continuous fluorescence (FRET substrate) assay
- assay-context: mean, read-out: Human Calpain 1/NS1 IC50 (nM)_MEAN
Measured IC50, listed per entry.

These solved cases illustrate the format of a correct answer.
| compound | IC50 |
| --- | --- |
| CON(C)C(=O)[C@@H]1C/C=C/CCOc2ccnc(n2)-c2ccccc2C(=O)N1 [Compound 135] | > 10000 nM |
| COc1ccc(CNC(=O)C(=O)C2CCCCOCCOCc3ccccc3C(=O)N2)cc1 (stereo not shown) [Compound 100] | > 10000 nM |
| Cc1ccc(Cl)cc1CNC(=O)C(=O)C1CCCCOCCOCc2ccccc2C(=O)N1 (stereo not shown) [Compound 108] | > 10000 nM |

Query: Which IC50 is reported with Human Calpain 1/NS1 (Homo sapiens, UniProt P07384) for this entry: CCNC(=O)C(=O)[C@@H]1Cc2ccc(cc2)OC/C=C/COc2cccc(c2)-c2ccn(n2)-c2ncccc2C(=O)N1 [Compound 65] ?
Response: < 3000 nM

Query: Can you check CCCNC(=O)C(=O)C1CCCCOCCOCc2ccccc2C(=O)N1 (stereo not shown) [Compound 91] next?
Response: > 10000 nM

Query: Can you check COc1cccc(CN(C)C(=O)C(=O)C2CCCCOCCOCc3ccccc3C(=O)N2)c1 (stereo not shown) [Compound 116] next?
Response: > 10000 nM

Query: Can you check O=C(NCc1ccccc1Cl)C(=O)C1CCCCOCCOCc2ccccc2C(=O)N1 (stereo not shown) [Compound 95] next?
Response: > 10000 nM

Query: Can you check CCOc1ccccc1CNC(=O)C(=O)C1CCCCOCCOCc2ccccc2C(=O)N1 (stereo not shown) [Compound 102] next?
Response: 3000 to 10000 nM

Query: Can you check O=C[C@@H]1Cc2ccc(cc2)OC/C=C/COc2cccc(c2)-c2ccn(n2)-c2ncccc2C(=O)N1 [Compound 44] next?
Response: < 3000 nM

Query: Can you check O=C(NCc1cccc(OC(F)(F)F)c1)C(=O)C1CCCCOCCOCc2ccccc2C(=O)N1 (stereo not shown) [Compound 120] next?
Response: > 10000 nM

Query: Can you check O=C(NCc1cccc(F)c1)C(=O)C1CCCCOCCOCc2ccccc2C(=O)N1 (stereo not shown) [Compound 106] next?
Response: > 10000 nM

Query: Can you check O=C(NCCc1ccccn1)C(=O)C1CCCCOCCOCc2ccccc2C(=O)N1 (stereo not shown) [Compound 82] next?
Response: > 10000 nM

Query: Can you check O=C[C@@H]1C/C=C/CCCCCCCc2ccccc2C(=O)N1 [Compound 23] next?
Response: < 3000 nM

###

- target-entity: Human Calpain 2/NS1 (Homo sapiens)
- Sequence (P17655 1-700): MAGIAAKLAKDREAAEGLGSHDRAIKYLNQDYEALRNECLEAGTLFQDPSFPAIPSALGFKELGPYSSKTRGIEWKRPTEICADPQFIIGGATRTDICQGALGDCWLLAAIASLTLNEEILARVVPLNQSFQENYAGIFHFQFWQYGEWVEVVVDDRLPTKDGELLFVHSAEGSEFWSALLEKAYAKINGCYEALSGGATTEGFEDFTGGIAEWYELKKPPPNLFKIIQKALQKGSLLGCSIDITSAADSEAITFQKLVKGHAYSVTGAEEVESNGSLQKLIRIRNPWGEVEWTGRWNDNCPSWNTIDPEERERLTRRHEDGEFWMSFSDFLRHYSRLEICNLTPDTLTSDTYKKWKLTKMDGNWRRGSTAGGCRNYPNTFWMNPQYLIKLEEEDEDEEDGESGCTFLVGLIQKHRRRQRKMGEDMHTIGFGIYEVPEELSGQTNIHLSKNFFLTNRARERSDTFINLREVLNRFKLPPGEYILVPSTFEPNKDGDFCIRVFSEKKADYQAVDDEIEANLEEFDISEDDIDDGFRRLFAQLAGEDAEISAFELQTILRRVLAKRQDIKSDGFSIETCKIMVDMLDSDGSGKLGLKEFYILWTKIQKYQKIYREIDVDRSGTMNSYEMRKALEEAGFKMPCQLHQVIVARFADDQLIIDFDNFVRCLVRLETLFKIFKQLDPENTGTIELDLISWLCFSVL
- Sequence (P04632 1-268 partner): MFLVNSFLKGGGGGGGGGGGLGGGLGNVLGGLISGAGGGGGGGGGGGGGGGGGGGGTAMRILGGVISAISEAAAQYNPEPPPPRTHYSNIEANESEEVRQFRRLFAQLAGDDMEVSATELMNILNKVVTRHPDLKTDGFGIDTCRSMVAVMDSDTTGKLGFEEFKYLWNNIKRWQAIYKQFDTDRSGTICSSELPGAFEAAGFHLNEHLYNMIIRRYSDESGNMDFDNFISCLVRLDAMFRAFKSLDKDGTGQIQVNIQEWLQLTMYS
- assay-comment: Biochemical inhibition of calpain 2, continuous fluorescence (FRET substrate) assay
- assay-context: mean, read-out: Human Calpain 2/NS1 IC50 (nM)_MEAN
Measured IC50, listed per entry.

These solved cases illustrate the format of a correct answer.
| molecule | IC50 |
| --- | --- |
| O=C(NCCc1cccnc1)C(=O)C1CCCCOCCOCc2ccccc2C(=O)N1 (stereo not drawn) [Compound 101] | > 10000 nM |
| O=C(NC1CC1)C(=O)[C@@H]1C/C=C/COCCOCc2ccccc2C(=O)N1 [Compound 79] | > 10000 nM |
| NC(=O)C(O)[C@@H]1CCCCCOc2ccnc(n2)-c2ccccc2C(=O)N1 (stereo partly drawn) [Compound 147] | > 10000 nM |
| O=C[C@@H]1C/C=C/CCCOc2ccccc2C(=O)N1 [Compound 21] | 3000 to 10000 nM |

Query: May I ask what IC50 has been recorded for O=C[C@@H]1CCCCCCCCc2ccccc2C(=O)N1 [Compound 15] ?
Response: < 3000 nM

###

- target-entity: Human Calpain 9/NS1 (Homo sapiens)
- Sequence (O14815 1-690): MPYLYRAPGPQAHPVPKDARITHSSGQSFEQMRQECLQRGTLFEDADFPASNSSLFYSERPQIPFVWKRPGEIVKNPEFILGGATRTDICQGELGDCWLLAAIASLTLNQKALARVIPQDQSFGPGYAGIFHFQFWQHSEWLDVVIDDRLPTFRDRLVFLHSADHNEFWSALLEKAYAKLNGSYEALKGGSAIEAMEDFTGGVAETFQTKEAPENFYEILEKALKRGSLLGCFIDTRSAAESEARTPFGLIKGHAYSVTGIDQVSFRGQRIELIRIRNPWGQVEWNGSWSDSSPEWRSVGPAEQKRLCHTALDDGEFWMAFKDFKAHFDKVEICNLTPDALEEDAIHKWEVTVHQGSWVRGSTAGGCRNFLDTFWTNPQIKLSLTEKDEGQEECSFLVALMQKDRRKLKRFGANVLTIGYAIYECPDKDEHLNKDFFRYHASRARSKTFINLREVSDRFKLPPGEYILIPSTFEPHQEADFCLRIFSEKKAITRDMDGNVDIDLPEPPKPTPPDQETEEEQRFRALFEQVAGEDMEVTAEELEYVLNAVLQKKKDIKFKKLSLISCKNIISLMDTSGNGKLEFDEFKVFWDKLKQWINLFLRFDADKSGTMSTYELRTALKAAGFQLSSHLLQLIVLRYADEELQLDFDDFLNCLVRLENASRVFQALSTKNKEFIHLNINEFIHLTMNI
- Sequence (P04632 1-268 partner): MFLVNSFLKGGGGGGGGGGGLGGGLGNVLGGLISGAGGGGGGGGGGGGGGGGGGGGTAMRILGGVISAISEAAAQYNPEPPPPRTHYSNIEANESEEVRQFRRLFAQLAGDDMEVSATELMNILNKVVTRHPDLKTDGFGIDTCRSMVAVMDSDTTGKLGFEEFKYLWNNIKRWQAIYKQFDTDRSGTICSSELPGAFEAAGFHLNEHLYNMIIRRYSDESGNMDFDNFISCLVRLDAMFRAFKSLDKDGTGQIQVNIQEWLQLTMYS
- assay-comment: Biochemical inhibition of calpain 9, continuous fluorescence (FRET substrate) assay
- assay-context: mean, read-out: Human Calpain 9/NS1 IC50 (nM)_MEAN
quantity: IC50

These solved cases illustrate the format of a correct answer.
| compound | IC50 |
| --- | --- |
| CCNC(=O)C(=O)[C@@H]1CCCCCCCCCc2ccccc2C(=O)N1 [Compound 27] | > 10000 nM |
| CN(C)CCCNC(=O)C(=O)C1CCCCOCCOCc2ccccc2C(=O)N1 (centres unmarked) [Compound 93] | > 10000 nM |
| O=C[C@@H]1Cc2ccc(cc2)CCCCc2cccc(c2)-c2ccn(n2)-c2ncccc2C(=O)N1 [Compound 73] | < 3000 nM |
| CCNC(=O)C(=O)[C@@H]1CC=CCCCCCc2ccccc2C(=O)N1 [Compound 26] | 3000 to 10000 nM |

Switching to the query record.
Query: May I ask what IC50 has been recorded for O=C[C@@H]1CCCCOCCn2ccc3cccc(c32)C(=O)N1 [Compound 8] ?
Response: < 3000 nM
